Recorded values, source patent US10799462B2.

For each entry below, report its Rh* (most common radius measured at 90° using DLS) value.
# Run description: Dynamic light scattering (DLS) particle radius
# Assay type: physicochemical
# Condition details: γ-PGA alone or peptide/γ-PGA NPs 1:1 w/w; n = 9
Give the number; nm is assumed, so skip it.

Entry PK(FK)5P (PKFKFKFKFKFKP) [PFK, proline capped amphiphilic cationic 13-residue peptide] needs its Rh* (most common radius measured at 90° using DLS) filled in; supply it.
11.4

Quick one: give measured Rh* (most common radius measured at 90° using DLS) for KFFPKKPFKFFKK [rPFK, scrambled order control of PFK]
9.57

Find the measured Rh* (most common radius measured at 90° using DLS) of FK(FK)5F (FKFKFKFKFKFKF) [free termini version of the amphiphilic peptide] and report it.
7.41

Given KFFFKKFFKFFKK [rFK, scrambled order control of FK] , respond with its Rh* (most common radius measured at 90° using DLS).
6.45

---

# Run description: Zeta potential / surface charge by Zetasizer (Smoluchowski model)
# Assay type: physicochemical
# Condition details: γ-PGA alone or peptide/γ-PGA NPs 1:1 w/w; n = 9
Recorded endpoint: ζ zeta potential (mV)
Number only, in mV; omit the unit.

Name the recorded ζ zeta potential of the item KFFFKKFFKFFKK [rFK, scrambled order control of FK] in your answer.
−38.78

// Input: FK(FK)5F (FKFKFKFKFKFKF) [free termini version of the amphiphilic peptide] . Output its ζ zeta potential only.
−43.71

Return the recorded ζ zeta potential value; entry: KFFPKKPFKFFKK [rPFK, scrambled order control of PFK]
−25.26

Please report ζ zeta potential for the following substance: PK(FK)5P (PKFKFKFKFKFKP) [PFK, proline capped amphiphilic cationic 13-residue peptide]
−49.3
